Target: human FAP (Homo sapiens, UniProt Q12884)
Sequence (Q12884 26-760): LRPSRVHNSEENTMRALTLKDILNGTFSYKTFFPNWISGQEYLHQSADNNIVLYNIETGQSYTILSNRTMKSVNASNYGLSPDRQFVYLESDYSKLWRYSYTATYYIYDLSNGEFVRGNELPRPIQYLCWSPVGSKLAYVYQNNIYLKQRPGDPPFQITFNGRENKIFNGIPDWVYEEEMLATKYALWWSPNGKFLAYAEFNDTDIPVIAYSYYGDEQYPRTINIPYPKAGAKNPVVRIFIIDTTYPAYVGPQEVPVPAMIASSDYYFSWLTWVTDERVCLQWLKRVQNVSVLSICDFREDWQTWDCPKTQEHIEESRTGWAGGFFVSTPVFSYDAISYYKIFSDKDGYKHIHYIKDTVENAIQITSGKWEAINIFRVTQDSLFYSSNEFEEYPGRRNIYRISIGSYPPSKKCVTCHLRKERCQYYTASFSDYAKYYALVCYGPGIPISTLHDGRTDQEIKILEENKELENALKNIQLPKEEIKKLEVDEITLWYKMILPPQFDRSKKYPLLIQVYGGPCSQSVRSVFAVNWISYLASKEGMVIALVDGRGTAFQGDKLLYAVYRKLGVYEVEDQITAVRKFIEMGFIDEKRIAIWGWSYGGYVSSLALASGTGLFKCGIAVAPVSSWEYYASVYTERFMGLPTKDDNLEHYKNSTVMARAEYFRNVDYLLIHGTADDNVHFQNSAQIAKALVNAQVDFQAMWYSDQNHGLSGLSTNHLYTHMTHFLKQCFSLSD
Structures can show the parent of a compound that is named as a salt. Starred links: 1 amine or outer side, 2 acyl side, 3 side chain; linkers in the order of their positions; H or OH if unused. Non-standard residues stand in square brackets, D forms with d. Residues, ends and D or L forms follow the SMILES beside them. Groups on a side chain read outwards from the residue. *: point of attachment. Nicotinoyl(6-NMe3+) = C[N+](C)(C)c1ccc(C(=O)*)cn1; Phe(4-CH2NH2) = NCc1ccc(C[C@H](N)C(=O)O)cc1; Piperazinyl(4-CH2COOH) = O=C(O)CN1CCN(*)CC1; AEF = NCCOc1ccc(C[C@H](N)C(=O)O)cc1; Nicotinoyl(6-F) = O=C(c1ccc(F)nc1)*; NMeF = CN[C@@H](Cc1ccccc1)C(=O)O; Aoc(2) = CCCCCC[C@H](N)C(=O)O; Ahp(2) = CCCCC[C@H](N)C(=O)O; hSer = N[C@@H](CCO)C(=O)O; AEEA = NCCOCCOCC(=O)O; CO = O=C([*:1])[*:2]; Propyl = CCC*
Assign Kd to each entry below.

Recall and state the measured Kd for CCCCCC[C@@H]1NC(=O)[C@H](Cc2ccc(CNC(=O)COCCOCCN)cc2)NC(=O)[C@H](Cc2ccccc2)N(C)C(=O)CNC(=O)CNC(=O)[C@H]2CCCN2C(=O)[C@H](CC(=O)O)NC(=O)[C@H](CCCCNC(=O)N2CCN(CC(=O)O)CC2)NC(=O)CNC(=O)[C@H](Cc2c[nH]c3ccccc23)NC1=O [Example A1, TFA salt] (cyclo([Aoc(2)]WGK([CO-Piperazinyl(4-CH2COOH)])D[dP]GG[NMeF][Phe(4-CH2NH2)](AEEA))) .
< 0.007 nM

Recall and state the measured Kd for CCCOCC[C@@H]1NC(=O)[C@H](Cc2ccc(CNC(=O)COCCOCCN)cc2)NC(=O)[C@H](Cc2ccccc2)N(C)C(=O)CNC(=O)CNC(=O)[C@H]2CCCN2C(=O)[C@H](CC(=O)O)NC(=O)[C@H](CCCCNC(=O)N2CCN(CC(=O)O)CC2)NC(=O)CNC(=O)[C@H](Cc2c[nH]c3ccccc23)NC1=O [Example A2, TFA salt] (cyclo(D[dP]GG[NMeF][Phe(4-CH2NH2)](AEEA)[hSer](Propyl)WGK([CO-Piperazinyl(4-CH2COOH)]))) .
< 0.011 nM

Recall and state the measured Kd for CCCOCC[C@@H]1NC(=O)[C@H](Cc2ccc(CNC(=O)COCCOCCNC(=O)c3ccc([N+](C)(C)C)nc3)cc2)NC(=O)[C@H](Cc2ccccc2)N(C)C(=O)CNC(=O)CNC(=O)[C@H]2CCCN2C(=O)[C@H](CC(=O)O)NC(=O)[C@H](CCCCNC(=O)N2CCN(CC(=O)O)CC2)NC(=O)CNC(=O)[C@H](Cc2c[nH]c3ccccc23)NC1=O [Example C58] (cyclo(D[dP]GG[NMeF][Phe(4-CH2NH2)]([AEEA-Nicotinoyl(6-NMe3+)])[hSer](Propyl)WGK([CO-Piperazinyl(4-CH2COOH)]))) .
< 0.007 nM

Recall and state the measured Kd for CCCCC[C@@H]1NC(=O)[C@H](Cc2ccc(O)cc2)NC(=O)[C@H](Cc2ccccc2)N(C)C(=O)CNC(=O)CNC(=O)[C@H]2CCCN2C(=O)[C@H](CC(=O)O)NC(=O)[C@H](Cc2ccc(O)cc2)NC(=O)CNC(=O)[C@H](Cc2c[nH]c3ccccc23)NC1=O [Example A52] (cyclo([Ahp(2)]WGYD[dP]GG[NMeF]Y)) .
0.118 nM

Recall and state the measured Kd for CCCCC[C@@H]1NC(=O)[C@H](Cc2ccc(OCCN)cc2)NC(=O)[C@H](Cc2ccccc2)N(C)C(=O)CNC(=O)[C@@H]2CCCN2C(=O)[C@H]2CCCN2C(=O)[C@H](CC(=O)O)NC(=O)[C@H](Cc2ccc(O)cc2)NC(=O)CNC(=O)[C@H](Cc2c[nH]c3ccccc23)NC1=O [Example A32] (cyclo(G[NMeF][AEF][Ahp(2)]WGYD[dP]P)) .
0.27 nM

Recall and state the measured Kd for CCCOCC[C@@H]1NC(=O)[C@H](Cc2ccc(CNC(=O)COCCOCCNC(=O)c3ccc(F)nc3)cc2)NC(=O)[C@H](Cc2ccccc2)N(C)C(=O)CNC(=O)CNC(=O)[C@H]2CCCN2C(=O)[C@H](CC(=O)O)NC(=O)[C@H](CCCCNC(=O)N2CCN(CC(=O)O)CC2)NC(=O)CNC(=O)[C@H](Cc2c[nH]c3ccccc23)NC1=O [Example C56] (cyclo(D[dP]GG[NMeF][Phe(4-CH2NH2)]([AEEA-Nicotinoyl(6-F)])[hSer](Propyl)WGK([CO-Piperazinyl(4-CH2COOH)]))) .
< 0.007 nM

Sourced from patent US20250090699A1
